Biological target: T1, Goat anti-Human Kappa
T1 construct: Positive control; also called biotinylated goat anti-human kappa light chain
Assay: ELISA; positive control; also: test concentration or dose not given here
Procedure: The binding of ACVR2A-specific monoclonal antibodies to human ACVR2A, mouse ACVR2A, biotinylated goat anti-human kappa light chain (positive control) and human Fc (negative control) were determined by ELISA.
property.measured: optical density (OD)
Kindly provide the numeric value in OD only, without the unit symbol.

Entry 370_E05 (antibody, V domains shown, VH/VL only) VH: EVQLLESGGGLVQPGGSLRLSCAASGFTFSSYGMNWVRQAPGKGLEWVSNINYNGGYKGYADSVKGRFTISRDNSKNTLYLQMNSLRAEDTAVYYCARGATWHDTHLDYWGQGTLVTVSS VL: DIQMTQSPSSLSASVGDRVTITCRASQSISTYLNWYQQKPGKAPKLVIYAVTSRASGVPSRFSGSGSGTDFTLTISSLQPEDFATYYCQQSYNSPLTFGGGTKVEIK , optical density reported as 3.52

The binder identified as 365_H02 (antibody, V domains shown, VH/VL only) VH: EVQLLESGGGLVQPGGSLRLSCAASGFTFSDYGMNWVRQAPGKGLEWVSSINYNGGYTGYADSVKGRFTISRDNSKNTLYLQMNSLRAEDTAVYYCARSANWHDTHLDYWGQGTLVTVSS VL: DIQMTQSPSSLSASVGDRVTITCRASQSILTYLNWYQQKPGKAPKLLIYAATSRASGVPSRFSGSGSGTDFTLTISSLQPEDFATYYCQQSYENPLTFGGGTKVEIK registered its optical density at 3.58

// optical density value for 369_H12 (antibody, V domains shown, VH/VL only) VH: EVQLLESGGGLVQPGGSLRLSCAASGFTFSSYSMNWVRQAPGKGLEWVAGINYNGGYKSYADSVKGRFTISRDNSKNTLYLQMNSLRAEDTAVYYCARGATWHDTHLDYWGQGTLVTVSS VL: DIQMTQSPSSLSASVGDRVTITCRASQSIVTYVNWYQQKPGKAPKLVIYAATSRASGVPSRFSGSGSGTDFTLTISSLQPEDFATYYCQQSYDSPLTFGGGTKVEIK : 3.65

optical density reading for 365_A11 (antibody, V domains shown, VH/VL only) VH: EVQLLESGGGLVQPGGSLRLSCAASGFTFDDYGMNWVRQAPGKGLEWVSGINYNSGYTSYADSVKGRFTISRDNSKNTLYLQMNSLRAEDTAVYYCARSANWHDTALDYWGQGTLVTVSS VL: DIQMTQSPSSLSASVGDRVTITCRASQSILSYLNWYQQKPGKAPKLVIYAATSLASGVPSRFSGSGSGTDFTLTISSLQPEDFATYYCQQSYESPLTFGGGTKVEIK : 3.27

Measured optical density, 371_B01 (antibody, V domains shown, VH/VL only) VH: EVQLLESGGGLVQPGGSLRLSCAASGFTFDSYSMNWVRQAPGKGLEWVSNINYNSGYTGYADSVKGRFTISRDNSKNTLYLQMNSLRAEDTAVYYCARGATWHDTHLDYWGQGTLVTVSS VL: DIQMTQSPSSLSASVGDRVTITCRASQSILSYVNWYQQKPGKAPKLLIYAATSLASGVPSRFSGSGSGTDFTLTISSLQPEDFATYYCQQSYDLPLTFGGGTKVEIK : 3.58
